B1: TRIM43 (parent)
chain: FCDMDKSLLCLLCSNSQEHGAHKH

# Variants of: B1
# measurementDescription: protein stability index of a GFP-peptide fusion (GPS, HEK-293T) (PSI 1-6); higher = more stable;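 note: lentivirally expressed fusions sorted by FACS into six bins by GFP to DsRed ratio, PSI derived from sequencing read proportions per bin multiplied by bin number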
# testConditions: c terminus: a fixed tail appended
Task for the reader: assign each of the following variants its reported protein stability index.
Please respond with just the number, no unit label.

### Prompt Can you share its protein stability index? I mean this variant: C10Y
### Response 2.65

### Prompt Can you share its protein stability index? I mean this variant: S14C
### Response 1.88

### Prompt Can you share its protein stability index? I mean this variant: N15A
### Response 1.6

### Prompt Can you share its protein stability index? I mean this variant: D3M
### Response 2.54

### Prompt Can you share its protein stability index? I mean this variant: N15F
### Response 2.01

### Prompt Can you share its protein stability index? I mean this variant: D5Y
### Response 2.18

### Prompt Can you share its protein stability index? I mean this variant: C10K
### Response 2.04

### Prompt Can you share its protein stability index? I mean this variant: H22Q
### Response 1.91

### Prompt Can you share its protein stability index? I mean this variant: G20S
### Response 1.99

### Prompt Can you share its protein stability index? I mean this variant: D5Q
### Response 1.98

### Prompt Can you share its protein stability index? I mean this variant: S16L
### Response 2.15

### Prompt Can you share its protein stability index? I mean this variant: H19G
### Response 2.18

### Prompt Can you share its protein stability index? I mean this variant: S14T
### Response 2.02

### Prompt Can you share its protein stability index? I mean this variant: H24A
### Response 1.72

### Prompt Can you share its protein stability index? I mean this variant: N15Q
### Response 1.87

### Prompt Can you share its protein stability index? I mean this variant: L12P
### Response 1.91

### Prompt Can you share its protein stability index? I mean this variant: S14E
### Response 2.02

### Prompt Can you share its protein stability index? I mean this variant: D5S
### Response 1.79

### Prompt Can you share its protein stability index? I mean this variant: D3L
### Response 1.93

### Prompt Can you share its protein stability index? I mean this variant: G20T
### Response 2.12

### Prompt Can you share its protein stability index? I mean this variant: K23G
### Response 1.53

### Prompt Can you share its protein stability index? I mean this variant: M4R
### Response 2.16
